Biological target: matriptase (Homo sapiens)
Construct: purchased R&D Systems 3946-SEB-010
Sequence (Q9Y5Y6 615-855 limits assumed): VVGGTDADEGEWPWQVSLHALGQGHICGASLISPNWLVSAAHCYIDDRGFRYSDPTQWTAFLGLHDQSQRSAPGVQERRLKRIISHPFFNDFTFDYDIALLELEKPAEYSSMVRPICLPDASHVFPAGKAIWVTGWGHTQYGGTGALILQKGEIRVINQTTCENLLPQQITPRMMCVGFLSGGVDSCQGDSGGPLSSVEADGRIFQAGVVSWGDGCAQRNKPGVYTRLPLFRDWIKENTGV
Assay: Fluorogenic kinetic enzyme inhibitor assay, matriptase
Format: biochemical
testReadout: log10(IC50) (log10 of the value in nM)
Remember, log10 of IC50, in nM.

Completed entries (count: 4):
CC(=O)N[C@@H](Cc1cncn1COCc1ccccc1)C(=O)N[C@@H](CCCCNC(=N)N)C(=O)N[C@@H](CCC(C)C)C(=O)N[C@@H](CCCNC(=N)N)C(=O)c1nc2ccccc2s1 | -0.06
CC(=O)N[C@H]1Cc2ccc(cc2)Oc2cccc(c2)C[C@@H](C(=O)N[C@H](CCCNC(=N)N)C(=O)c2nc3ccccc3s2)NC(=O)[C@H](CC(C)C)NC1=O [VD5064A] | 2.83
CC(=O)N[C@H]1Cc2ccc(cc2)Oc2ccc(cc2)C[C@@H](C(=O)N[C@H](CCCNC(=N)N)C(=O)c2nc3ccccc3s2)NC(=O)[C@H](CC(C)C)NC1=O [VD5076A] | 3.37
CC(=O)N[C@@H](CO)C(=O)N[C@@H](CCC(N)=O)C(=O)N[C@@H](CC(C)C)C(=O)N[C@@H](CCCNC(=N)N)C(=O)c1nccs1 | 1.26

Next, consider the following compound.
So what's the measured log10(IC50) for this one? CC(=O)N[C@H](Cc1c[nH]c2ccccc12)C(=O)N[C@@H](CCCCNC(=N)N)C(=O)N[C@@H](CCC(C)C)C(=O)N[C@@H](CCCNC(=N)N)C(=O)c1nc2ccccc2s1
-0.34

These data points were gathered from patent US20250171495A1.
